Origin of the recorded values: patent US11613556B2

The entries below come with measured activation at 1 µM values attached.
Molecular target: glutamate-activated channels of the GRIN1/2A subtype stably transfected in HEK 293 cells (Homo sapiens (Human), UniProt Q05586+Q12879)
Sequence (Q12879 whole entry, looked up, other chains not shown): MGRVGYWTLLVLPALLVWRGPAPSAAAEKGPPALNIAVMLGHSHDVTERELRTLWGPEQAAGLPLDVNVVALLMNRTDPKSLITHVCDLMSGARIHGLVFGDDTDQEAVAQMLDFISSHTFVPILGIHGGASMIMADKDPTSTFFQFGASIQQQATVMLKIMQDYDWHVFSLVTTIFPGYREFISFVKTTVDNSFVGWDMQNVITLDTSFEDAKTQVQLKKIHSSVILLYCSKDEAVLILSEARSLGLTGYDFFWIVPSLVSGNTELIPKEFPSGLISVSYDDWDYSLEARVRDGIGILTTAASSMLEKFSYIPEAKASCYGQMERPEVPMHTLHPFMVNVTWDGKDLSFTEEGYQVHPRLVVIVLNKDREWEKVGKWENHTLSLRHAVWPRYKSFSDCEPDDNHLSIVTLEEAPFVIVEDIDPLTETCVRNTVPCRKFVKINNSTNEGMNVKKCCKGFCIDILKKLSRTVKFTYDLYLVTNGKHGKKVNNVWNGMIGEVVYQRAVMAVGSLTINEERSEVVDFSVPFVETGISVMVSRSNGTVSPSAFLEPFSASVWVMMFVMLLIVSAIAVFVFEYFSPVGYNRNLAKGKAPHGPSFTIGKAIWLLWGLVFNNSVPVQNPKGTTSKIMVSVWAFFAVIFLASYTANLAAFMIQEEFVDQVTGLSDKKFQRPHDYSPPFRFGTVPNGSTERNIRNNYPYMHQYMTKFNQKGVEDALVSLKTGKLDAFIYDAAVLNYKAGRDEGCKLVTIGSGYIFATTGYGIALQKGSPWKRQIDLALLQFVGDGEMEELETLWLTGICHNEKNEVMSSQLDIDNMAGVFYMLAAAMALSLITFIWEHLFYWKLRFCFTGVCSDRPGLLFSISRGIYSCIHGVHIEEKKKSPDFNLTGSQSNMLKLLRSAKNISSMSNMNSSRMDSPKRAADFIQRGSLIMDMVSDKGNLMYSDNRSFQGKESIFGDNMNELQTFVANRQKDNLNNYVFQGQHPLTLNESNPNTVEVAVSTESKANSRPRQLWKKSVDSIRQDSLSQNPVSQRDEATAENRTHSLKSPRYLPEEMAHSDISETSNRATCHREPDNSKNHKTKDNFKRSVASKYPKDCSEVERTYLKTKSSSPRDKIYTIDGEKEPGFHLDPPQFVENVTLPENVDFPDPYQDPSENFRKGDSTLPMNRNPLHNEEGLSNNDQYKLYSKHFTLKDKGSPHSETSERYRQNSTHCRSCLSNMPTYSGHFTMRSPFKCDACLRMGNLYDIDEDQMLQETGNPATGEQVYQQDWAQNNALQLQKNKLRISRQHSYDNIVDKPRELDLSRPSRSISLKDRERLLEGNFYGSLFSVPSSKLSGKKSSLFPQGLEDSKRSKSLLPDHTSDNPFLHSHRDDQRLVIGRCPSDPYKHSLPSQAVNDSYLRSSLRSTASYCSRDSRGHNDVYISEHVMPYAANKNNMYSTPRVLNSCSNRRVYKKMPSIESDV
Assay: Automated patch-clamp system (QPatch HTX), percent potentiation at 1 μM
Format: cell-based
Details: HEK293, 1 μM test compound, 300 μM NMDA with 8 μM glycine, HEK 293 GRIN1/2A, read-out: GluN2A PCA % potentiation at 1 μM

compound	activation at 1 µM
COC[C@]1(O)CC[C@@]2(C)[C@@H](CC[C@@H]3[C@@H]2CC[C@]2(C)[C@@H]([C@H](C)[C@H](O)CCC(C)C)CC[C@@H]32)C1 [Compound 2]	< -40%
CC[C@]1(O)CC[C@@]2(C)[C@@H](CC[C@@H]3[C@@H]2CC[C@]2(C)[C@@H]([C@H](C)[C@@H](O)c4ccccc4)CC[C@@H]32)C1 [Compound 55]	-40 to -10%
CC[C@]1(O)CC[C@@]2(C)[C@@H](CC[C@@H]3[C@@H]2CC[C@]2(C)[C@@H]([C@H](C)[C@@H](O)c4cccnc4)CC[C@@H]32)C1 [Compound 7]	-10 to 10%
CC[C@]1(O)CC[C@@]2(C)[C@@H](CC[C@@H]3[C@@H]2CC[C@]2(C)[C@@H]([C@H](C)[C@H](O)C(F)(F)F)CC[C@@H]32)C1 [Compound 11]	< -40%
CC[C@]1(O)CC[C@@]2(C)[C@H](CC[C@@H]3[C@@H]2CC[C@]2(C)[C@@H]([C@H](C)[C@H](O)CCC(C)C)CC[C@@H]32)C1 [Compound 96]	-10 to 10%

Would you kindly share the measured activation at 1 µM for CC[C@]1(O)CC[C@@]2(C)[C@H](CC[C@@H]3[C@@H]2CC[C@]2(C)[C@@H]([C@H](C)[C@H](O)CC4CCC(C)(C)CC4)CC[C@@H]32)C1 [Compound 87] ?
-10 to 10%

Now this one: CC[C@]1(O)CC[C@@]2(C)C(=CC[C@H]3[C@@H]4CC[C@H]([C@H](C)[C@@H](O)C(F)(F)F)[C@@]4(C)CC[C@@H]32)C1 [Compound 62]
-40 to -10%

Now this one: C[C@@H]([C@H]1CC[C@H]2[C@@H]3CC=C4C[C@](O)(C(F)(F)F)CC[C@]4(C)[C@H]3CC[C@]12C)[C@H](O)C(F)(F)F [Compound 1]
-40 to -10%

Now this one: COC[C@]1(O)CC[C@@]2(C)[C@H](CC[C@@H]3[C@@H]2CC[C@]2(C)[C@@H]([C@H](C)[C@H](O)C(F)(F)F)CC[C@@H]32)C1 [Compound 71]
-40 to -10%

Now this one: CC[C@]1(O)CC[C@@]2(C)[C@H](CC[C@@H]3[C@@H]2CC[C@]2(C)[C@@H]([C@H](C)[C@@H](O)CC4CCC(C)(C)CC4)CC[C@@H]32)C1 [Compound 59]
< -40%
